What pKd was measured for each of the following?
test.system: human CD3 (huCD3ed) (human) (UniProt P07766)
Sequence (P07766 23-126, chain 1 of 2): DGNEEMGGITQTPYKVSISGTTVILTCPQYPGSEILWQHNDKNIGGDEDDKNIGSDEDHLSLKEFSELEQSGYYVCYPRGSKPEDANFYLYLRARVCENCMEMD
Sequence (P04234 22-105, chain 2 of 2, further chain): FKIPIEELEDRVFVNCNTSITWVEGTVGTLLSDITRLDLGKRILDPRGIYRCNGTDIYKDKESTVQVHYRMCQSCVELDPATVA
run.description: Biacore SPR, bispecific hIgG2dA format, 37 C; CD3 antigen not given
Numbers only, as −log10 of the molar value.

Would you please look over these solved cases?
Would you kindly share the measured pKd for h2B4-1d_Ep (bispecific antibody, part only; not given: anti-EpCam arm, constant regions, V domains shown, not shown: another chain or arm of the molecule; a dimerising Fc or GST; small tags and cut ends) VH: EVQLVESGGGLVQPGGSLRLSCAASGFTFSDYYMTWVRQAPGKGLEWVAFIRNRARGYTSDHNASVKGRFTISRDNAKNSLYLQMNSLRAEDTAVYYCARDRPSYYVLDYWGQGTTVTVSS VL: DIVMTQSPDSLAVSLGERATINCTSSQSLFNVRSRKNYLAWYQQKPGQPPKLLISWASTRESGVPDRFSGSGSGTDFTLTISSLQAEDVAVYYCKQSYDLFTFGSGTKLEIK ?
7.39

Item: h25A8-B8_Ep (bispecific antibody, part only; not given: anti-EpCam arm, constant regions, V domains shown, not shown: another chain or arm of the molecule; a dimerising Fc or GST; small tags and cut ends) VH: EVQLVESGGGLVKPGGSLRLSCAASGFTFSTYAMNWVRQAPGKGLEWVGRIRSKINNYATYYAESVKGRFTISRDDSKNTLYLQMNSLKTEDTAVYYCVRHETLRSGISWFASWGQGTLVTVSS VL: QAVVTQEPSLTVSPGGTVTLTCRSSTGAVTTSNYANWVQQKPGQAPRGLIGGTNTRAPGTPARFSGSLLGGKAALTLSGAQPEDEAEYYCVLWYNNHWVFGGGTKLTVL
7.73

For h2B4-TK_Ep (bispecific antibody, part only; not given: anti-EpCam arm, constant regions, V domains shown, not shown: another chain or arm of the molecule; a dimerising Fc or GST; small tags and cut ends) VH: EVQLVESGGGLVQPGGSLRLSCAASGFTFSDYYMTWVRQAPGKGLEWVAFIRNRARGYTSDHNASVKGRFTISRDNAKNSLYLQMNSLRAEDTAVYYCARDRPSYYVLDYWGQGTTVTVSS VL: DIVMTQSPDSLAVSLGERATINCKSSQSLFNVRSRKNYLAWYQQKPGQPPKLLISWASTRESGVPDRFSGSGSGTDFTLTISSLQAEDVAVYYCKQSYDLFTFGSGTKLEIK then?
7.51

Repeat with h2B4-yaesTK_Ep (bispecific antibody, part only; not given: anti-EpCam arm, constant regions, V domains shown, not shown: another chain or arm of the molecule; a dimerising Fc or GST; small tags and cut ends) VH: EVQLVESGGGLVQPGGSLRLSCAASGFTFSDYYMTWVRQAPGKGLEWVAFIRNRARGYTSDYAESVKGRFTISRDNAKNSLYLQMNSLRAEDTAVYYCARDRPSYYVLDYWGQGTTVTVSS VL: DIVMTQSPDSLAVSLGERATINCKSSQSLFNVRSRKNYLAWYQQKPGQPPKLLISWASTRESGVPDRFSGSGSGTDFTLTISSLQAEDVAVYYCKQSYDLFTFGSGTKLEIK
7.26

Another binder to check: h25A8-B13_Ep (bispecific antibody, part only; not given: anti-EpCam arm, constant regions, V domains shown, not shown: another chain or arm of the molecule; a dimerising Fc or GST; small tags and cut ends) VH: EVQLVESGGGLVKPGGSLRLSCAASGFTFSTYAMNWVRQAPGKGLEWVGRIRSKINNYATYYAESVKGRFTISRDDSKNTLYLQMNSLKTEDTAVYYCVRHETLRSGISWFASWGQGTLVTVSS VL: QAVVTQEPSLTVSPGGTVTLTCRTSTGAVTTSNYANWVQQKPGQAPRGLIGGTNTRAPGTPARFSGSLLGGKAALTLSGAQPEDEAEYYCVLWYNNHWVFGGGTKLTVL
7.74

Now consider the entry below.
Look up pKd for this binder: h25A8-C8_Ep (bispecific antibody, part only; not given: anti-EpCam arm, constant regions, V domains shown, not shown: another chain or arm of the molecule; a dimerising Fc or GST; small tags and cut ends) VH: EVQLVESGGGLVKPGGSLRLSCAASGFTFNTYAMNWVRQAPGKGLEWVGRIRSKINNYATYYAESVKGRFTISRDDSKNTLYLQMNSLKTEDTAVYYCVRHETLRSGISWFASWGQGTLVTVSS VL: QAVVTQEPSLTVSPGGTVTLTCRSSTGAVTTSNYANWVQQKPGQAPRGLIGGTNTRAPGTPARFSGSLLGGKAALTLSGAQPEDEAEYYCVLWYNNHWVFGGGTKLTVL
7.60
